Biological target: 5-hydroxytryptamine receptor 1A (Homo sapiens)
Sequence (whole entry): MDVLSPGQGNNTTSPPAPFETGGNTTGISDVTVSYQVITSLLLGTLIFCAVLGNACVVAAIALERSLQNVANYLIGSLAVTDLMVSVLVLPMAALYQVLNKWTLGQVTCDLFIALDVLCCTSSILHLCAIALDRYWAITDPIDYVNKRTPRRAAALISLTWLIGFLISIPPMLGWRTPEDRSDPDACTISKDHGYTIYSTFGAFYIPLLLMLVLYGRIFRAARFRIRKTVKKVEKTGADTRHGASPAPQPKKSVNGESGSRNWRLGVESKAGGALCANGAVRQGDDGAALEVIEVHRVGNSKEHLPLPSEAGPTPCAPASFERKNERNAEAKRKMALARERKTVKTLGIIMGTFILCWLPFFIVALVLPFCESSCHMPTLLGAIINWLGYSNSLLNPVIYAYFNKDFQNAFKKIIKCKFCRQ
Test: Displacement of [3H]LSD from human 5-HT1A receptor expressed in CHO-K1 cells at 10 uM
Type: cell-based
quantity-kind: inhibition (%)

// solved cases for inhibition follow
smiles-str | inhibition (%)
CC(C)c1cc(CNCCN2CCN(C(=O)c3cc(Cl)cc(Cl)c3)CC2)on1 | 43.2
O=C(c1cc(Cl)cc(Cl)c1)N1CCN(CCNCCCc2nc3ccccc3[nH]2)CC1 | 90.1
CC(C)(C)CCNCCN1CCN(C(=O)c2ccc(Cl)cc2)CC1 | 36.7

1. CC(C)c1cc(CNCCN2CCN(C(=O)c3ccc(Cl)c(Cl)c3)CC2)on1
2. CC(C)(C)CCNCCN1CCN(C(=O)c2cc(Cl)cc(Cl)c2)CC1
3. O=C(c1ccc(Cl)c(Cl)c1)N1CCN(CCNCCCc2nc3ccccc3[nH]2)CC1
4. CC(C)c1cc(CNCCN2CCN(C(=O)c3cc(C(F)(F)F)cc(C(F)(F)F)c3)CC2)on1
5. CC(C)(C)CCNCCN1CCN(C(=O)c2cc(C(F)(F)F)cc(C(F)(F)F)c2)CC1
*Q* Sort the molecules on inhibition; start with the lowest figure. // respond by listing labels in the order requested
*A* 5, 4, 2, 3, 1
(5: -4.4%, 4: 13%, 2: 33.7%, 3: 49.5%, 1: 76.4%)
